experimentalSystem: PI3K p110 beta/p85 alpha (Homo sapiens, UniProt P42338)
Sequence (P27986 whole entry): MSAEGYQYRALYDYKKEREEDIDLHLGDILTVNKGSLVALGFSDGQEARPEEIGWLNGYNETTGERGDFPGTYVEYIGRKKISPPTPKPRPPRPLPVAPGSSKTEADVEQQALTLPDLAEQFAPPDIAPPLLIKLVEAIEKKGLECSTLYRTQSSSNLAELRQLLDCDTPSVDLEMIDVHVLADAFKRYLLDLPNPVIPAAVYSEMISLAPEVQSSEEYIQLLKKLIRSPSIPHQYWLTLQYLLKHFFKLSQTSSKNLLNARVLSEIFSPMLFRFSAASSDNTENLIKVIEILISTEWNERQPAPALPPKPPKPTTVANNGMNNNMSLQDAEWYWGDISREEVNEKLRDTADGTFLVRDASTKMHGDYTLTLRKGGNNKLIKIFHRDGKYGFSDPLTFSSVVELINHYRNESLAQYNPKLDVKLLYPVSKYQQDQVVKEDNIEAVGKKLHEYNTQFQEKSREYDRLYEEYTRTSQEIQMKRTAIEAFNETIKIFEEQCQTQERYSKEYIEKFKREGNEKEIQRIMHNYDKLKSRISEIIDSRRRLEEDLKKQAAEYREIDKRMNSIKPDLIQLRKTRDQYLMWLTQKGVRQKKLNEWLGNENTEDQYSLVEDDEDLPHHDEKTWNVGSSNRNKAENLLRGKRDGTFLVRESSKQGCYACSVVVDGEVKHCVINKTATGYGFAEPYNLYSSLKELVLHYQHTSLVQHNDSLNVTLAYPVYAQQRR
Sequence (P42338 whole entry): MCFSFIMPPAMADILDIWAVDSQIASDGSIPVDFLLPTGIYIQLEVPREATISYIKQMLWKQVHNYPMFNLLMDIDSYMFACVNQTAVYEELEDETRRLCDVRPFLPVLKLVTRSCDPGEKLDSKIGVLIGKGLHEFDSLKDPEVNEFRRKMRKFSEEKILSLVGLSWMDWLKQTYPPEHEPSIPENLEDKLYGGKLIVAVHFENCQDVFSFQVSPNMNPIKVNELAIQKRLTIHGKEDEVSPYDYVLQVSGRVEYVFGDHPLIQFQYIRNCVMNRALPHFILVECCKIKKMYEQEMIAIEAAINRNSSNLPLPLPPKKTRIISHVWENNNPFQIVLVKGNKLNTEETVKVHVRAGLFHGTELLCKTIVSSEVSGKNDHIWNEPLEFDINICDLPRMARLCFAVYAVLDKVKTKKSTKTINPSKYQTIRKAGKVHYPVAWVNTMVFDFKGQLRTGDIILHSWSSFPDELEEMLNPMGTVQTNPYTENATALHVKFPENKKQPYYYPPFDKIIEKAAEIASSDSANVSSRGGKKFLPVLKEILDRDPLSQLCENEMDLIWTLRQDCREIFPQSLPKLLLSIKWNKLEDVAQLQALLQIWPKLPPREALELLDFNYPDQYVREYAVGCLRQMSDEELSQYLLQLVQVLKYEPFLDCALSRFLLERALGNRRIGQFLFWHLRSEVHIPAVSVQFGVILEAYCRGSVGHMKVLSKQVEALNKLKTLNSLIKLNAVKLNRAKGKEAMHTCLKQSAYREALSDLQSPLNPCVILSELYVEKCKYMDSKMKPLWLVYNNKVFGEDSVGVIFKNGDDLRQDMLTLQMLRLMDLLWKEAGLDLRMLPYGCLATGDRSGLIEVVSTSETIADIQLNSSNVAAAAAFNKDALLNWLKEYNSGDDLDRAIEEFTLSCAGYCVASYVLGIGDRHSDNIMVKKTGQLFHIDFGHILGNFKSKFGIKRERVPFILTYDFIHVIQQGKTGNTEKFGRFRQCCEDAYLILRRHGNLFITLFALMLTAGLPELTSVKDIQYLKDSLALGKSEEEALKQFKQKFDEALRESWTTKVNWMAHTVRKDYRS
experiment: Inhibition of recombinant human PI3K p110beta/p85alpha using phosphatidylinositol 4,5-bisphosphate as substrate preincubated for 15 mins followed by addition of ATP and measured after 30 mins by fluorescence polarisation assay
readoutType: Ki (nM)

>>> print(df.to_string())
                          structureassmiles  readouttype  observedvalue
0  CNC(=O)N1CC[C@](C)(N2CCc3c(-c4cnc(N)nc4)nc(N4CCOCC4)nc32)C1           Ki             24
1  COC(=O)N1CC[C@](C)(N2CCc3c(-c4cnc(N)nc4)nc(N4CCOCC4)nc32)C1           Ki           0.79
2  CNS(=O)(=O)N1CC[C@](C)(N2CCc3c(-c4cnc(N)nc4)nc(N4CCOCC4)nc32)C1           Ki            4.9
3  COC(=O)N1CC[C@](CO)(Nc2nc(N3CCOCC3)nc(-c3cnc(N)nc3)c2F)C1           Ki              5
4  Nc1ncc(-c2nc(N3CCOCC3)nc3c2CCN3[C@H]2CCNC2)cn1           Ki             17
5  CS(=O)(=O)N1CC[C@H](N2CCc3c(-c4cnc(N)nc4)nc(N4CCOCC4)nc32)C1           Ki             16

====

Recorded microsomal CLint, one value per entry.
experiment: Apparent intrinsic clearance in human liver microsomes
Assay type: ADME, Microsome
conditionContext: read-out: CLH(app)
readoutType: microsomal CLint

>>> print(df.to_string())
                           structureassmiles       readouttype   observedvalue
 0  COC(=O)N1CC[C@](CO)(Nc2nc(N3CCOCC3)nc(-c3cnc(N)nc3)c2F)C1  microsomal CLint   < 8 µL/min/mg
 1  Nc1ncc(-c2nc(N3CCOCC3)nc(N[C@@]3(CO)CCN(C(=O)OCC(F)F)C3)c2F)cn1  microsomal CLint  < 18 µL/min/mg
 2  COC(=O)N1CC[C@H](N2CCc3c(-c4cnc(N)nc4)nc(N4CCOCC4)nc32)C1  microsomal CLint   < 8 µL/min/mg
 3  CC(C)(N)C(=O)N1CC[C@](C)(N2CCc3c(-c4cnc(N)nc4)nc(N4CCOCC4)nc32)C1  microsomal CLint   < 9 µL/min/mg
 4  CC(=O)N1CC[C@H](N2CCc3c(-c4cnc(N)nc4)nc(N4CCOCC4)nc32)C1  microsomal CLint   < 8 µL/min/mg
 5  CS(=O)(=O)N1CC[C@H](N2CCc3c(-c4cnc(N)nc4)nc(N4CCOCC4)nc32)C1  microsomal CLint   < 8 µL/min/mg
 6  CNS(=O)(=O)N1CC[C@H](N2CCc3c(-c4cnc(N)nc4)nc(N4CCOCC4)nc32)C1  microsomal CLint  < 11 µL/min/mg
 7  CNC(=O)N1CC[C@](C)(N2CCc3c(-c4cnc(N)nc4)nc(N4CCOCC4)nc32)C1  microsomal CLint  < 11 µL/min/mg
 8  CC(=O)N1CC[C@@](C)(N2CCc3c(-c4cnc(N)nc4)nc(N4CCOCC4)nc32)C1  microsomal CLint   < 8 µL/min/mg
 9  CNC(=O)N1CC[C@H](N2CCc3c(-c4cnc(N)nc4)nc(N4CCOCC4)nc32)C1  microsomal CLint   < 8 µL/min/mg
10  CS(=O)(=O)N1CC[C@](CO)(Nc2cc(-c3cnc(N)nc3)nc(N3CCOCC3)n2)C1  microsomal CLint   < 8 µL/min/mg
